Test system: SK-MEL-2 melanoma
test: NCI-60 one-dose screen, 48 h (100 = growth as untreated, 0 = no growth, -100 = all killed)
applied_conditions: 10 µM unless noted
Compounds without any hit were thinned out: in the full panel of roughly 83,000, 20% have a hit.
Lab note: cut-off is 90%. Strictly less in growth is 1. Exactly 90% or more is 0.

compound	tested_on	qualitative_label
COc1cc2cc(NCc3ccc(OC(F)F)cc3)nc(C)c2cc1OC	SK-MEL-2 melanoma	1
COc1cc2c3c(n(CCCCNCCCn4c5c(c6cc(OC)c(OC)cc6c4=O)C(=O)c4cc6c(cc4-5)OCO6)c(=O)c2cc1OC)-c1cc2c(cc1C3=O)OCO2	SK-MEL-2 melanoma	0
O=C(/C=C/C12c3ccccc3C(c3ccccc31)C1C(=O)NC(=O)C12)c1ccccn1 (stereo unspecified)	SK-MEL-2 melanoma	1
Cc1cc(C)cc(Nc2ccc([N+](=O)[O-])c(NCCN3CCOCC3)n2)c1	SK-MEL-2 melanoma	1
COC(=O)C1=C(C)NC(C)=C(C(=O)OCC(C)C)C1c1ccccc1[N+](=O)[O-] (stereo unspecified)	SK-MEL-2 melanoma	1
O=C1OCC2=C1C(c1cccc(C(F)(F)F)c1)c1cc3c(cc1N2CCO)OCO3 (stereo unspecified)	SK-MEL-2 melanoma	1
O=C(CSc1nc2ccc([N+](=O)[O-])cc2[nH]1)Nc1ccc(Br)cc1	SK-MEL-2 melanoma	1
O=C(CCl)Nc1ccc2c(Nc3cc(O)ccc3Cl)ncnc2c1	SK-MEL-2 melanoma	1
CN1CCCc2cc(/C=C3/SC(=S)N(CCc4ccc(O)cc4)C3=O)ccc21	SK-MEL-2 melanoma	0
Cc1cc2oc(=O)cc(CP(=O)(O)O)c2cc1O	SK-MEL-2 melanoma	0
CC(=O)N/C(=C1/OC(C(O)C(O)C(O)CO)CN1C)[P+](c1ccccc1)(c1ccccc1)c1ccccc1 (stereo unspecified)	SK-MEL-2 melanoma	0
COc1ccc(OC)c(Nc2nnc(-c3ccc(Cl)cc3)o2)c1	SK-MEL-2 melanoma	0
O=C(N=Nc1c(O)[nH]c2ccccc12)Nc1ccc(Cl)cc1	SK-MEL-2 melanoma	0
O=C1c2cc3c(cc2-c2c1c1ccc(Cl)cc1c(=O)n2C[C@H](O)CO)OCO3	SK-MEL-2 melanoma	1
COc1cc2cc(Oc3ccc(NC(=O)Nc4ccccc4)cc3)c(C)nc2cc1OCCN1CCCCC1	SK-MEL-2 melanoma	0
COc1cc(/C=C2\CN(S(=O)(=O)c3ccc(C)cc3)C/C(=C\c3cc(CN4CCCCC4)c(O)c(OC)c3)C2=O)cc(CN2CCCCC2)c1O	SK-MEL-2 melanoma	1
CCN1C(=O)N(CC)C2C1NN=c1s/c(=C3\C(=O)N(CCc4ccccc4)c4ccccc43)c(=O)n12 (stereo unspecified)	SK-MEL-2 melanoma	1
COc1cccc(C(=O)OCC(O)C(=O)NC23CC4CC(CC(C4)C2)C3)c1 (stereo unspecified)	SK-MEL-2 melanoma	0
O=C(CCCCNC(=O)c1cc(=O)c(O)co1)Nc1ccccc1	SK-MEL-2 melanoma	0
O=C(/C=C/C12c3ccccc3C(c3ccccc31)C1C(=O)NC(=O)C12)c1ccc(F)cc1 (stereo unspecified)	SK-MEL-2 melanoma	1
C=NNc1ccccc1	SK-MEL-2 melanoma	0
COc1ccc(/C=C/C(=O)c2cc3c(N)c(C(=O)Nc4ccc(OC)cc4)sc3nc2C)cc1	SK-MEL-2 melanoma	1
O=C1C(Cl)=C(NCCN2CCOCC2)C(=O)c2ncccc21	SK-MEL-2 melanoma	1
CCN(CC)c1ccc(N2C(=O)/C(=C/c3cccs3)SC2=S)cc1	SK-MEL-2 melanoma	0
C[N+](C)(C/C=C/c1ccccc1)Cc1ccccc1	SK-MEL-2 melanoma	0
COc1ccc(OC)c(-c2cn3nc(-c4c[nH]c5ccc(Br)cc45)sc3n2)c1	SK-MEL-2 melanoma	1
Clc1nn2c(Cn3cnc4c(NCc5ccccc5)ncnc43)nnc2c2ccccc12	SK-MEL-2 melanoma	1
CC(C)c1ccc(C(=O)Nc2sc3cc(O)ccc3c2C#N)cc1	SK-MEL-2 melanoma	1
COc1ccc2cc(-c3cnc4nonc4n3)ccc2c1	SK-MEL-2 melanoma	1
